# System: RPMI-8226 leukemia
# PROTOCOL: NCI-60 one-dose screen, 48 h
# PROTOCOL_CONDITIONS: 10 µM unless noted
Compounds without any hit were thinned out: in the full panel of roughly 83,000, 20% have a hit. The source made the active and inactive calls. The calls were made as follows: active = growth percent below 10; inactive = the rest.
// one of TRUE for active, FALSE for inactive, no free text

Take a look at these entries with their results.
Hi, do you know how CC(O)C(NC(=O)C1CCCN1C(=O)CNC(=O)C1CC(=O)NCC(=O)NC(Cc2c[nH]c3ccccc23)C(=O)NC(Cc2ccc(O)cc2)C(=O)NCC(=O)NC(CO)C(=O)NC(CCC(N)=O)C(=O)NC(Cc2c[nH]c3ccccc23)C(=O)N1)C(=O)NCC(=O)NC(CCC(N)=O)C(=O)NC(CCCNC(=N)N)C(=O)NC(CC(=O)O)C(=O)O (centres undefined) came out in this test?
FALSE

Now try `O=C(N/N=C/c1ccco1)c1[nH]c2ccc(Br)cc2c1-c1ccccc1` .
TRUE

Now try `CC(C)(C)Nc1nc2c(OCCc3ccccc3)cccn2c1-c1ccc(O)cc1` .
FALSE

Would you kindly look at the next entry?
Hi, do you know how `Nc1cc(-c2c[nH]c3ccc(Cl)cc23)nc2cc(-c3c[nH]c4ccc(Cl)cc34)nn12` came out in this test?
FALSE
